- target-desc: pooled human IgG (human IgG1, 2, 3 and 4)
metric-name: Enzyme Activity Endpoint Assay: Fab′2 (ng/µL)
Give the value in ng/µL but do not write ng/µL after it.

(Q) # lookup: Enzyme Activity Endpoint Assay: Fab′2 of PRT-553 (protein) MANQEIRYSEETPKTITSIWTKGVTPPTDFIKNEDVLHAPYVANQGWYDITKTFNGKDDLLCGAATAGNMLHWWFDQNKEEIENYLKKHPEKQKINFNGEQMFDVKEAIDTKDSQTDSKLFEYFKDKAFPYLSTKHLGVFPDHVIDMFINGYRLSLTNHGPTPVKRGTKDPRGGIFDAVFTRGDQTKLLTERHDFKEKTLNEISDLIKQELTEGKALGLSHTYANVRINHVINLWGADFNSEGNLEAIYVTDSDSNASIGMKKYYVGVNAAGKVAISAKEIEDDNIGAQVLGLFTLSTGKDIWEQTNLEHHHHHH
(A) 79

FYI, the data here is from patent US20250027068.
